Hello, the source for this data is ChEMBL document CHEMBL4219223, in case you need it.

Recorded inhibition at 1000 µM values for a group of compounds are listed next.
Test system: Erythrocyte
method.notes: Antisickling activity in human homozygous sickle red blood cells at 1 mM incubated for 2 hrs under hypoxic condition relative to control
Type: functional
test.readout: inhibition at 1000 µM (%)

INSERT INTO results (compound, assay_system, endpoint_result) VALUES
  ('COc1ccc(C=O)c(OCc2ccccn2)c1', 'Erythrocyte', 13.5),
  ('COc1ccc(OCc2ccncc2)c(C=O)c1', 'Erythrocyte', 60.4),
  ('COc1ccc(OCc2cccnc2)c(C=O)c1', 'Erythrocyte', 59.5),
  ('COc1ccc(OCc2ccccn2)c(C=O)c1', 'Erythrocyte', 64.8),
  ('COc1cc(C=O)ccc1O [VANILLIN]', 'Erythrocyte', 7.3);

* * *

Below, each entry is listed alongside its reported Activity.
assay.system: Hemoglobin HbA (Homo sapiens) (UniProt P69905+P68871)
Sequence (P68871 2-147 partner limits assumed): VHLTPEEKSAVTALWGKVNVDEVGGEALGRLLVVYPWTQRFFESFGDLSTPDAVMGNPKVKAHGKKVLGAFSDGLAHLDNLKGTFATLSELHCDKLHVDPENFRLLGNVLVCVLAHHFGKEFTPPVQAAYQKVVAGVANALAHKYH
Sequence (P69905 2-142 limits assumed): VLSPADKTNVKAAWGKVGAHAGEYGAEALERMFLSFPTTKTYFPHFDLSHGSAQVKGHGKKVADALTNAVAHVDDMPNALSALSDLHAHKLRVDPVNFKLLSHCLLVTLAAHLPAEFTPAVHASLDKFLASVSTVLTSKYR
method.notes: Inhibition of sickle hemoglobin polymerization in human homozygous sickle red blood cells assessed as formation of high oxygen affinity schiff-base adducts at 2 mM incubated under air for 1 hr followed by 2 hrs incubation under hypoxic condition by HPLC method relative to control
Set-up: scale not given: the % may be the effect or the level left
test.readout: Activity

INSERT INTO assay_data (compound_smiles, endpoint_result) VALUES
  ('COc1ccc(OCc2cccnc2)c(C=O)c1', '100%'),
  ('COc1ccc(OCc2ccncc2)c(C=O)c1', '82.5%'),
  ('COc1cc(C=O)ccc1O', '12%'),
  ('COc1ccc(OCc2ccccn2)c(C=O)c1', '79.5%'),
  ('COc1ccc(C=O)c(OCc2ccccn2)c1', '51.6%');

* * *

assay.system: Hemoglobin HbA (Homo sapiens) (UniProt P69905+P68871)
method.notes: Induction of R-state stabilization of Hb in human homozygous sickle red blood cells assessed as change in oxygen pressure at which hemolysates are 50% saturated with oxygen at 2 mM incubated under air for 1 hr followed by 2 hrs incubation under hypoxic condition by oxygen equilibrium curve analysis relative to control
Criterion: Activity strictly less than 60%. Met: condition met. Not met: condition not met.

INSERT INTO measurements (molecule, discrete_label) VALUES
  ('COc1ccc(OCc2cccnc2)c(C=O)c1', 'condition not met'),
  ('COc1cc(C=O)ccc1O [VANILLIN]', 'condition met'),
  ('COc1ccc(C=O)c(OCc2ccccn2)c1', 'condition met'),
  ('COc1ccc(OCc2ccncc2)c(C=O)c1', 'condition met');

* * *

Test system: Erythrocyte
method.notes: Antisickling activity in human homozygous sickle red blood cells at 2 mM incubated for 2 hrs under hypoxic condition relative to control
Assay type: functional
test.readout: inhibition at 2000 µM (%)

INSERT INTO measurements (molecule, unit_of_measure, endpoint_result) VALUES
  ('COc1cc(C=O)ccc1O [VANILLIN]', '%', 7.3),
  ('COc1ccc(OCc2cccnc2)c(C=O)c1', '%', 90.5),
  ('COc1ccc(C=O)c(OCc2ccccn2)c1', '%', 51.3),
  ('COc1ccc(OCc2ccncc2)c(C=O)c1', '%', 85.9),
  ('COc1ccc(OCc2ccccn2)c(C=O)c1', '%', 90.3);

* * *

assay.system: Hemoglobin HbA (Homo sapiens) (UniProt P69905+P68871)
method.notes: Induction of R-state stabilization of Hb in human homozygous sickle red blood cells assessed as change in oxygen pressure at which hemolysates are 50% saturated with oxygen at 0.5 mM incubated under air for 1 hr followed by 2 hrs incubation under hypoxic condition by oxygen equilibrium curve analysis relative to control
test.readout: Activity (%)

INSERT INTO results (compound_smiles, endpoint_result) VALUES
  ('COc1ccc(C=O)c(OCc2ccccn2)c1', 8.1),
  ('COc1cc(C=O)ccc1O', 1.2),
  ('COc1ccc(OCc2ccccn2)c(C=O)c1', 22),
  ('COc1ccc(OCc2cccnc2)c(C=O)c1', 24.8),
  ('COc1ccc(OCc2ccncc2)c(C=O)c1', 7.9);
